Parameter GI50: see the listing below.
- System: SF-539
- Protocol text: NCI tumour cell line growth inhibition, 48 h
The source made the active and inactive calls. Rule as the data show it: active = GI50 up to about 1.1 µM and inactive = higher.

| Compound | GI50 |
| --- | --- |
| CC1C(=O)C(C)C(c2ccccc2)N(N=O)C1c1ccccc1 (stereo not given) | 86.5 µM (inactive) |
| CCN(CC)CCCNc1ccc2ncn3c4ccc(O)cc4c(=O)c1c23 | 2.9 µM (inactive) |
| Nc1ccc(Cc2ccc(N)c(C(=O)O)c2)cc1C(=O)O | > 100 µM (inactive) |
| CCCCc1ccc(Nc2nc3c(ncn3COCCBr)c(=O)[nH]2)cc1 | > 100 µM (inactive) |
| CC1(C)C2CCC1(C)C(N/C(Sc1ccccc1)=C(/C(Cl)=C(Cl)Cl)[N+](=O)[O-])C2 (stereo not given) | 13.5 µM (inactive) |
